target: T1, COVID S1 RBM Fc fusion (Antigen 2) (SARS-CoV-2, UniProt P0DTC2 437-508); experiment: phage ELISA
T1 construct: domain: RBM
Values of specificity ELISA, percent binding relative to Acro S1 strictly less than 10% map to Yes, and values of at least 10% map to No.

Reference set, count: 3
SARS-CoV-2 variant 1-24 (antibody, V domains shown) VH: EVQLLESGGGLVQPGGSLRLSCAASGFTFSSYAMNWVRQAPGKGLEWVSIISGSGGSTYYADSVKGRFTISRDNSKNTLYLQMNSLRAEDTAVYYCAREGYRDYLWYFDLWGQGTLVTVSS VL: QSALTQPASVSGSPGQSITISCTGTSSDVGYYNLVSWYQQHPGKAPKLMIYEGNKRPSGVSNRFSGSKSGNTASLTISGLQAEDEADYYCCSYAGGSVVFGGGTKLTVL | No
SARS-CoV-2 variant 1-48 (antibody, V domains shown) VH: EVQLLESGGGLVQPGGSLRLSCAASGFTFSSHAMYWVRQAPGKGLEWVSAISGSAGSTYYADSVKGRFTISRDNSKNTLYLQMNSLRAEDTAVYYCAHDTKDFWSGYCIFDPWGQGTLVTVSS VL: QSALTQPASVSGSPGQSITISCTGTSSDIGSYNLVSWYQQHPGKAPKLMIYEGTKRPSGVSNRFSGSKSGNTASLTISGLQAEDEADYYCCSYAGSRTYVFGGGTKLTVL | No
SARS-CoV-2 variant 1-2 (antibody, V domains shown) VH: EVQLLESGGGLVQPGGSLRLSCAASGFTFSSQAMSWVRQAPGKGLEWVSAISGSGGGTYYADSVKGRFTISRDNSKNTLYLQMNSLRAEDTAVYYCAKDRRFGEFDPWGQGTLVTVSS VL: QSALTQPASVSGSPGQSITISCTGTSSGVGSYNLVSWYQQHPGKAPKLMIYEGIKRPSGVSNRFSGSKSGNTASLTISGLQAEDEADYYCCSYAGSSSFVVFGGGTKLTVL | No

Is specificity ELISA, percent binding relative to Acro S1 of SARS-CoV-2 variant 1-21 (antibody, V domains shown) VH: EVQLLESGGGLVQPGGSLRLSCAASGFTFSSYTMSWVRQAPGKGLEWVSIISGSGGSTYYADSVKGRFTISRDNSKNTLYLQMNSLRAEDTAVYYCAREGYRDYLWYFDLWGQGTLVTVSS VL: QSALTQPASVSGSPGQSITISCTGTSSDVGSNNLVSWYQQHPGKAPKLMIYEGNKRPSGVSNRFSGSKSGNTASLTISGLQAEDEADYYCCSYAGSVVFGGGTKLTVL strictly below 10%? Yes

Is specificity ELISA, percent binding relative to Acro S1 of SARS-CoV-2 variant 1-42 (antibody, V domains shown) VH: EVQLLESGGGLVQPGGSLRLSCAASGVTFSSYAMSWVRQAPGKGLEWVSAITGSGGSTYYADSVKGRFTISRDNSKNTLYLQMNSLRAEDTAVYYCAKHGSGTIFGVVIAKYYFDYWGQGTLVTVSS VL: QSALTQPASVSGSPGQSITISCTGTSSDVGRYNLVSWYQQHPGKAPKLMIYEGGKRPSGVSNRFSGSKSGNTASLTISGLQAEDEADYYCCSYASSSTLVFGGGTKLTVL strictly below 10%? Yes
